# measurement_description: Dose that produces lethality in 50% (LD50) of male and female carworth farms CF-1 strain mice weighing 16-25 g oral (po) route of administration
# Type: ADME, organism-based
# test_context: both, CF-1, mouse, in vivo
# LD50 values compiled below
# output: bare number, implied unit mg/kg

smiles_record	LD50, mg/kg
CC(C)N(CCOc1ccc(N/C(=N\c2cccc(C(F)(F)F)c2)c2ccccc2)cc1)C(C)C.Cl	1000

Data request: Name the reported LD50 value associated with the compound Br.CN(CCOc1ccc(N/C(=N\c2ccccc2)c2ccccc2)cc1)Cc1ccccc1
Data returned: 500

Data request: Name the reported LD50 value associated with the compound CC(C)N(CCOc1ccc(N/C(=N\c2ccc(Cl)cc2)c2ccccc2)cc1)C(C)C
Data returned: 1000

Data request: Name the reported LD50 value associated with the compound CN(CCOc1ccc(N/C(=N\c2ccccc2)c2ccccc2)cc1)c1ccccc1
Data returned: 1000

###

# measurement_description: Lethal dose required to produce 50% lethality in male and female carworth farms CF-1 strain mice weighing 16-25 g administered orally
# test_context: both, CF-1, rat, in vivo, po
# LD50 values compiled below
Answer format: number, then unit.

smiles_record	LD50
CC(C)N(CCOc1ccc(N/C(=N\c2ccc(Cl)cc2)c2ccccc2)cc1)C(C)C.Cl	1000 mg/kg
Br.CC(C)N(CCCOc1ccc(N/C(=N\c2ccccc2)c2ccccc2)cc1)C(C)C	347 mg/kg

Switching to the query record.
Data request: Name the reported LD50 value associated with the molecule CCCCNC(=N)NC(=N)N
Data returned: 500 mg/kg

###

# measurement_description: Lethality in 50% (LD50) of male and female CF-1 strain mice weighing 16-25g, intraperitoneal administration
# Format: ADME, organism-based
# test_context: both, CF-1, mouse, in vivo, ip
measured_parameter: LD50 (mg/kg)
# output: bare number, implied unit mg/kg

Known results for compounds:
smiles_record	LD50, mg/kg
CN(CCOc1ccc(N/C(=N\c2ccccc2)c2ccccc2)cc1)c1ccccc1	587
CC(C)N(CCOc1cccc(N/C(=N\c2ccccc2)c2ccccc2)c1)C(C)C.Cl	107
CC(C)N(CCSc1ccc(N/C(=N\c2ccccc2)c2ccccc2)cc1)C(C)C.Cl	285
CCN(CC)CCOc1ccc(N/C(=N\c2ccccc2)c2ccccc2)cc1.O=C(O)C(=O)O	100
Br.COc1ccc(N/C(=N/c2ccc(OCCCN3CCCC3)cc2)c2ccccc2)cc1	108

Data request: Name the reported LD50 value associated with the compound Br.c1ccc(/N=C(\Nc2ccc(OCCN3CCOCC3)cc2)c2ccccc2)cc1
Data returned: 400

###

# LD50 values compiled below
# measurement_description: Lethality in 50% (LD50) of male and female CF-1 strain mice weighing 16-25g, intraperitoneal administration
# Assay type: ADME, organism-based
# test_context: both, CF-1, mouse, in vivo, ip
# output: bare number, implied unit mg/kg

smiles_record	endpoint_value
CC(C)N(CCOc1ccc(N/C(=N\C2CCCCC2)c2ccccc2)cc1)C(C)C	137
CCCCN(CCCC)CCOc1ccc(N/C(=N\c2ccccc2)c2ccccc2)cc1.Cl	160
COc1ccc(N/C(=N/c2ccc(OCCCN(C(C)C)C(C)C)cc2)c2ccccc2)cc1.Cl	108

Switching to the query record.
Data request: Name the reported LD50 value associated with the molecule COc1ccc(N/C(=N/c2ccc(OCCN(C(C)C)C(C)C)cc2)c2ccccc2)cc1.Cl
Data returned: 160

Origin of values: ChEMBL document CHEMBL1122033
